experimental system: T1, Cynomolgus CXCR2 (cynomolgus, UniProt Q28519 3-353 (rhesus entry))
T1 chain: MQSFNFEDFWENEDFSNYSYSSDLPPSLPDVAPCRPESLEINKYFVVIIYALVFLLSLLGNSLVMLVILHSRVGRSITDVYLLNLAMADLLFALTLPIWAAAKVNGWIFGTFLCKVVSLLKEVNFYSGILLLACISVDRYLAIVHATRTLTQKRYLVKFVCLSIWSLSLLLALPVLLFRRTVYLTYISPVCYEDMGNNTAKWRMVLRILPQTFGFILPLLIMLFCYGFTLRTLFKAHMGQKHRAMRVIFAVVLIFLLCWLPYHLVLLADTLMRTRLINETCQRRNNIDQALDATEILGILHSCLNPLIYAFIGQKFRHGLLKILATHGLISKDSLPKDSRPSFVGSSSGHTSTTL
test details: cell-based or functional assay
# if measured FLIPR IC50 (GRO-α induced calcium release) < 1000 nM: YES  # else: NO

1. CXCR20024 (VHH, Bivalent: two VHH joined by a GlySer linker; also called 163E3-35GS-163E3; not shown: C-terminal c-myc tag and His6 tag coded by pAX100) EVQLVESGGGLVQPGGSLRLSCVASGRIFSSNAMGWFRQAPGKEREFVAAITWRSGGSAYYADSAKGRFTISRDNAKNTVYLQMNSLKPEDTAVYYCAAGGSSWLSFPPDYWGQGTQVTVSSGGGGSGGGGSGGGGSGGGGSGGGGSGGGGSGGGGSEVQLVESGGGLVQPGGSLRLSCVASGRIFSSNAMGWFRQAPGKEREFVAAITWRSGGSAYYADSAKGRFTISRDNAKNTVYLQMNSLKPEDTAVYYCAAGGSSWLSFPPDYWGQGTQVTVSS : YES
2. CXCR20035 (other, Biparatopic: two VHH joined by a GlySer linker; also called 54B12-35GS-163E3; 54B12-163E3; not shown: C-terminal c-myc tag and His6 tag coded by pAX100) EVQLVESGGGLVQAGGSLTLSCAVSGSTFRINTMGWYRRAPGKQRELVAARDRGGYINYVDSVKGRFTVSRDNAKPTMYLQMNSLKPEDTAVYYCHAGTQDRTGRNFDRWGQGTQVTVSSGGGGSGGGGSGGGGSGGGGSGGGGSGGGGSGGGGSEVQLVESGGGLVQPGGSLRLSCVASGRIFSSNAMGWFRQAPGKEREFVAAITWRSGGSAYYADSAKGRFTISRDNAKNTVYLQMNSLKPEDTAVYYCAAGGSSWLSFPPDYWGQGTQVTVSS : YES
3. CXCR20015 (other, Two different VHH joined by a GlySer linker; also called 2B2-35GS-137B7; not shown: C-terminal c-myc tag and His6 tag coded by pAX100) EVQLVESGGELVQPGGSLRLSCAASGSILTINAMGWYRQAPGKQRELVVRRTRGGSTTYQDSVKGRFTISADIAKKTMYLQMNSLKPEDTAVYYCMLDDRGGVYWGQGTQVTVSSGGGGSGGGGSGGGGSGGGGSGGGGSGGGGSGGGGSEVQLVESGGGLVQPGGSVRLSCVASGIIFRLSALGWTRQGPGKAREWVAGINSDGTTNYADPVKGRFTISRDNAKNTIYLHMDMLKPEDTAVYYCASGKYRGQGTQVTVSS : NO
4. CXCR20017 (other, Two different VHH joined by a GlySer linker; also called 97A9-35GS-137B7; not shown: C-terminal c-myc tag and His6 tag coded by pAX100) EVQLVESGGGLVQPGGSLRLSCVASGSIVRINTMGWYRQTPGKQRELVADITSGGNINYIDAVKGRFTISRDNTKNTVYLQMNSLKPEDTAVYYCNAEIVVLVGVWTQRARTGNYWGQGTQVTVSSGGGGSGGGGSGGGGSGGGGSGGGGSGGGGSGGGGSEVQLVESGGGLVQPGGSVRLSCVASGIIFRLSALGWTRQGPGKAREWVAGINSDGTTNYADPVKGRFTISRDNAKNTIYLHMDMLKPEDTAVYYCASGKYRGQGTQVTVSS : NO
5. CXCR20016 (other, Two different VHH joined by a GlySer linker; also called 137B7-35GS-2B2; not shown: C-terminal c-myc tag and His6 tag coded by pAX100) EVQLVESGGGLVQPGGSVRLSCVASGIIFRLSALGWTRQGPGKAREWVAGINSDGTTNYADPVKGRFTISRDNAKNTIYLHMDMLKPEDTAVYYCASGKYRGQGTQVTVSSGGGGSGGGGSGGGGSGGGGSGGGGSGGGGSGGGGSEVQLVESGGELVQPGGSLRLSCAASGSILTINAMGWYRQAPGKQRELVVRRTRGGSTTYQDSVKGRFTISADIAKKTMYLQMNSLKPEDTAVYYCMLDDRGGVYWGQGTQVTVSS : NO

Each recorded value in this set is attributed to patent US20130330346A1.
